- assayed.target: MMP-13 (Homo sapiens)
- test.summary: biochemical
- condition.context: Table 2; type I collagen film substrate; read-out: MMP-13 Type 1 Collagen IC50
reported.metric: IC50 (nM)
Give your result in nM as a bare value.

get_value(item= O=C(CN(Cc1cccnc1)S(=O)(=O)c1ccc(OCc2ccccc2)cc1)NO , readout=IC50) returns 52

----------
- System: bovine nasal cartilage explants
- test.summary: IL-1 Induced Cartilage Collagen Degradation From Bovine Nasal Cartilage (cartilage explant assay)
- Assay type: cell-based
- condition.context: Bos taurus; Variation 2: 12 days IL-1, then trypsin 48 hours, hydroxyproline content; read-out: Cartilage Explant Assay IC50 Variation 2
reported.metric: pIC50
Friendly reminder that pIC50 comes from taking -log10 of the concentration in mol/L.

get_value(item= O=C(CN(Cc1cccnc1)S(=O)(=O)c1ccc(OCc2ccccc2)cc1)NO [Example 2] , readout=pIC50) returns 6.26

get_value(item= CNC(=O)[C@H](Cc1ccc(OC)cc1)NC(=O)C(CC(=O)NO)CC(C)C (stereo partly drawn) [Example 1, reference compound] , readout=pIC50) returns 7.30

get_value(item= CNC(=O)C(Cc1ccc(OC)cc1)NC(=O)C(CCCCOc1ccccc1)CP(=O)(O)Cc1ccc(Cc2ccccc2)cc1 (stereo not drawn) [Example 3] , readout=pIC50) returns 6.08
